Cited source: patent US20200407445A1

Target: T1, Human TIGIT-His (human, UniProt Q495A1 22-141, biotinylated in the ForteBio Fab assay)
T1 construct: bought (Creative Biomart); also called Biotinylated Human TIGIT HIS; TIGIT-His monomer; not shown: His tag
T1 sequence (looked up): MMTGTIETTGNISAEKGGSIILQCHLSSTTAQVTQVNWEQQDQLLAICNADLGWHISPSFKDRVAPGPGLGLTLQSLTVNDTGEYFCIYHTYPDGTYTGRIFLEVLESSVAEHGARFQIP
Assay: MSD-SET, monovalent (Fab or mAb titrated, not said which)
Protocol: Briefly, solution equilibrium titrations (SET) were performed in PBS+0.1% IgG-Free BSA (PBSF) with antigen (TIGIT-His monomer) held constant at 10-100 pM and incubated with 3- to 5-fold serial dilutions of Fab or mAbs starting at 10 pM-10 nM. Antibodies (20 nM in PBS) were coated onto standard bind MSD-ECL plates overnight at 4° C. or at room temperature for 30 min. […] Antigen captured on a plate was detected with 250 ng/mL sulfotag-labeled streptavidin in PBSF by incubation on the plate for 3 min. […]
Readout: Kd (nM)

binder="anti-TIGIT antibody clone 29523 (IgG) (antibody, V domains shown) VH: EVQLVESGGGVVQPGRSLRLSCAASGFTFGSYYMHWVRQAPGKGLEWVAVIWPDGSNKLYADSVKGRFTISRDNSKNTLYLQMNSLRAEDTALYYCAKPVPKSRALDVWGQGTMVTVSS VL: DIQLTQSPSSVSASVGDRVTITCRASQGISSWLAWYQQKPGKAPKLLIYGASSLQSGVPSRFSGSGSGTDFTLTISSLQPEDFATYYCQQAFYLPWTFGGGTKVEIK" units=nM numeric_value=1.7
binder="anti-TIGIT antibody clone 29494 (IgG) (antibody, V domains shown) VH: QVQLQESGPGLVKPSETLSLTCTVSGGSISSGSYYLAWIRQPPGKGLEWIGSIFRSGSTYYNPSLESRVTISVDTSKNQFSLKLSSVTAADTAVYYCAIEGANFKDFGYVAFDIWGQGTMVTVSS VL: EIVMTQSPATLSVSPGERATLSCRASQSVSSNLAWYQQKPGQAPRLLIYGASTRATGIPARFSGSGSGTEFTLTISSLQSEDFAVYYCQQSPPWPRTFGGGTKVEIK" units=nM numeric_value=0.07
binder="anti-TIGIT antibody clone 29527 (IgG) (antibody, V domains shown) VH: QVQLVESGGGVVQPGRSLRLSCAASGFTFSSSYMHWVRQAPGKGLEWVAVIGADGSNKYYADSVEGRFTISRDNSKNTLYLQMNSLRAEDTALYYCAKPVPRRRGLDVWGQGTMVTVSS VL: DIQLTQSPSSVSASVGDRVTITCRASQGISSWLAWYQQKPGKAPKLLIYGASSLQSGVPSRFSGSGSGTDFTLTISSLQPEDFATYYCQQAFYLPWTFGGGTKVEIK" units=nM numeric_value=0.64
